Listing of entries alongside the reported fraction unbound.
# test-protocol: Protein Binding
Give the value as a plain number.

Known fraction unbound results, listed for orientation:
1) O=C1CCC2(CCN(Cc3nc4ccccc4[nH]3)CC2)Nc2ccccc21 : 0.01
2) O[C@H]1CCC2(CCN(Cc3ccc(F)cc3)CC2)Nc2ccccc21 : 0.37
3) O=C1CCC2(CCN(Cc3ccc(F)cc3)CC2)Nc2ccccc21 : 0.04

**Q:** May I ask what fraction unbound has been recorded for `O[C@@H]1CCC2(CCN(Cc3ccc(F)cc3)CC2)Nc2ccccc21` ?
**A:** 0.38

* * *

# target-or-system: sigma-1 receptors (Cavia porcellus, UniProt Q60492)
# Sequence (Q60492 whole entry): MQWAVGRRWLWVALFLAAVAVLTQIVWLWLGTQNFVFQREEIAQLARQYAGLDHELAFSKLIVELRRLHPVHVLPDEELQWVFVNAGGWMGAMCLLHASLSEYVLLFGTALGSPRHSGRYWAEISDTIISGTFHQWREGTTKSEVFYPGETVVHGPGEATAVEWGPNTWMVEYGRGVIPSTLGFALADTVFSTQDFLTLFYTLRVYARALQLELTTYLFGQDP
quantity-kind: IC50

**Q:** May I ask what IC50 has been recorded for `O=C1CCC2(CCN(CCc3ccccc3)CC2)Nc2ccccc21` ?
**A:** < 100 nM

* * *

Here we list molecules with their recorded IC50 when tested on human serotonin 5-HT2A (Homo sapiens, UniProt P28223).

1. O=C1CCC2(CCN(CCc3ccccc3)CC2)Nc2ccccc21 : < 1000 nM

Shifting focus to the molecule that follows.
**Q:** May I ask what IC50 has been recorded for OC1CCC2(CCN(Cc3ccc(F)cc3)CC2)Nc2ccccc21 (racemic) ?
**A:** > 1000 nM

* * *

# test-protocol: Permeability
# Format: in vitro ADME
# setup-conditions: not told; read-out: Permeability PupperX10^6 cm/s
quantity-kind: Papp (×10⁻⁶ cm/s)
Quick note: give the figure in ×10⁻⁶ cm/s, leave out the unit.

Known Papp results, listed for orientation:
1) O[C@H]1CCC2(CCN(Cc3ccc(F)cc3)CC2)Nc2ccccc21 [Compound 49] : 27.5
2) O=C1CCC2(CCNCC2)Nc2ccccc21 [Compound 11] : 4.7

**Q:** May I ask what Papp has been recorded for OC1CCC2(CCN(Cc3ccc(F)cc3)CC2)Nc2ccccc21 (racemic) [Compound 32] ?
**A:** 22.4

**Q:** May I ask what Papp has been recorded for O=C1CCC2(CCN(Cc3ccc(F)cc3)CC2)Nc2ccccc21 [Compound 31] ?
**A:** 22.9

**Q:** May I ask what Papp has been recorded for O=C1CCC2(CCN(Cc3nc4ccccc4[nH]3)CC2)Nc2ccccc21 [Compound 21] ?
**A:** 1.95

**Q:** May I ask what Papp has been recorded for O[C@@H]1CCC2(CCN(Cc3ccc(F)cc3)CC2)Nc2ccccc21 [Compound 50] ?
**A:** 25.8

* * *

# target-or-system: guinea pig sigma receptor (Cavia porcellus, UniProt Q60492)
# Construct: having guinea pig as a receptor source; from tissue; host or cells: guinea pig
# Sequence (Q60492 whole entry): as above
# test-protocol: Guinea pig sigma receptor assay
# Assay type: binding
# setup-conditions: read-out: IC50 Against Guinea Pig Sigma Receptor
quantity-kind: IC50

Known IC50 results, listed for orientation:
1) O=C1CCC2(CCN(Cc3ccc(F)cc3)CC2)Nc2ccccc21 [Compound 31] : < 10 nM
2) CC(=O)NC1CCC2(CCN(Cc3ccc(F)cc3)CC2)Nc2ccccc21 (racemic) [Compound 39] : < 10 nM
3) OC1CCC2(CCN(Cc3ccc(F)cc3)CC2)Nc2ccccc21 (racemic) [Compound 32] : < 10 nM

**Q:** Please state recorded IC50 (tested on guinea pig sigma receptor (Cavia porcellus, UniProt Q60492)) of O=C1CCC2(CCN(CC(O)c3ccccc3)CC2)Nc2ccccc21 (centres unmarked) [Compound 45]
**A:** < 10 nM

**Q:** Please state recorded IC50 (tested on guinea pig sigma receptor (Cavia porcellus, UniProt Q60492)) of O[C@H]1CCC2(CCN(Cc3ccc(F)cc3)CC2)Nc2ccccc21 [Compound 49]
**A:** < 100 nM

**Q:** Please state recorded IC50 (tested on guinea pig sigma receptor (Cavia porcellus, UniProt Q60492)) of O=C1C=CC2(CCN(Cc3ccc(F)cc3)CC2)Nc2ccccc21 [Compound 34]
**A:** < 100 nM

**Q:** Please state recorded IC50 (tested on guinea pig sigma receptor (Cavia porcellus, UniProt Q60492)) of O[C@@H]1CCC2(CCN(Cc3ccc(F)cc3)CC2)Nc2ccccc21 [Compound 50]
**A:** < 100 nM

**Q:** Please state recorded IC50 (tested on guinea pig sigma receptor (Cavia porcellus, UniProt Q60492)) of CC(c1ccc(F)cc1)N1CCC2(CCC(=O)c3ccccc3N2)CC1 (centres unmarked) [Compound 46]
**A:** < 10 nM

Origin of measurements: patent US6476019B1
